Values compiled from the antibiotic and cytotoxicity screens of Wong et al. (2023).

- Test system: HepG2
- protocol_details: cytotoxicity call (relative viability < 0.9)
- condition_context: 10 µM
Out of some 39,000 compounds screened, about 3,300 (8.5%) were called active. Many of the other results were omitted from the sample, so actives are more common in it than they were.
test_readout: cytotoxicity call

{"compound_smiles": "O=C(NCCCN1CCOCC1)[C@H]1[C@@H]2C=C[C@@]3(CN(Cc4cccs4)C(=O)[C@@H]13)O2", "test_readout": "cytotoxicity call", "test_value": "inactive"}
{"compound_smiles": "CNC(=O)[C@H]1C[C@H]2CCN(S(=O)(=O)N(C)C)C[C@H]2O1", "test_readout": "cytotoxicity call", "test_value": "inactive"}
{"compound_smiles": "COc1ccc(CN(C)C[C@H]2Oc3c(NC(=O)c4ccc(-c5nccs5)cc4)cccc3C(=O)N([C@@H](C)CO)C[C@H]2C)cc1", "test_readout": "cytotoxicity call", "test_value": "inactive"}

* * *

- System: HepG2
- protocol_details: cytotoxicity call (relative viability < 0.9)
- condition_context: 10 µM
Hit rate of the full screen: of about 39,000 compounds, about 3,300 (8.5%) were called active. This excerpt belongs to a sample that is enriched for actives.
Labels: active, inactive

{"compound_smiles": "C[C@@H]1CN([C@H](C)CO)C(=O)c2cc(NS(=O)(=O)c3cn(C)cn3)ccc2O[C@@H]1CN(C)S(=O)(=O)c1cccs1", "target": "HepG2", "assigned_label": "inactive"}
{"compound_smiles": "Cc1noc(C)c1NC(=O)Nc1ccc2c(c1)C(=O)N([C@H](C)CO)C[C@H](C)[C@@H](CN(C)C(=O)Nc1ccccc1)OCCCC[C@H](C)O2", "target": "HepG2", "assigned_label": "inactive"}
{"compound_smiles": "C[C@@H]1CN([C@@H](C)CO)C(=O)c2cc(NS(=O)(=O)c3cn(C)cn3)ccc2O[C@H]1CN(C)S(C)(=O)=O", "target": "HepG2", "assigned_label": "active"}
{"compound_smiles": "C[C@@H]1CCCCO[C@@H](CN(C)Cc2ccc(C(=O)Nc3ccccc3N)cc2)[C@@H](C)CN([C@H](C)CO)C(=O)c2cc(NC(=O)NC3CCCCC3)ccc2O1", "target": "HepG2", "assigned_label": "inactive"}
{"compound_smiles": "C[C@@H]1CN([C@@H](C)CO)C(=O)c2cc(NS(=O)(=O)c3cn(C)cn3)ccc2O[C@H]1CN(C)S(=O)(=O)c1cccs1", "target": "HepG2", "assigned_label": "active"}
{"compound_smiles": "C[C@@H]1CN([C@H](C)CO)S(=O)(=O)c2ccc(-c3cncnc3)cc2O[C@H]1CN(C)C(=O)NC1CCCC1", "target": "HepG2", "assigned_label": "inactive"}
{"compound_smiles": "C[C@@H]1CN([C@H](C)CO)C(=O)c2cc(NS(=O)(=O)c3ccc(F)cc3)ccc2O[C@H]1CN(C)S(=O)(=O)c1cn(C)cn1", "target": "HepG2", "assigned_label": "active"}
{"compound_smiles": "C[C@H](CO)N1C[C@H](C)[C@@H](CN(C)S(=O)(=O)c2cn(C)cn2)Oc2ccc(NS(=O)(=O)c3ccc(F)cc3)cc2C1=O", "target": "HepG2", "assigned_label": "inactive"}
{"compound_smiles": "C[C@@H]1CN([C@@H](C)CO)C(=O)c2cccc(NC(=O)Nc3cccc4ccccc34)c2O[C@H]1CN(C)S(=O)(=O)c1ccccc1F", "target": "HepG2", "assigned_label": "inactive"}

* * *

- Test system: HepG2
- protocol_details: cytotoxicity call (relative viability < 0.9)
- condition_context: 10 µM
The whole screen tested about 39,000 compounds, of which about 3,300 (8.5%) were called active. The full list was thinned out, with actives kept by preference.
Labels: 1 (yes) for active, 0 (no) for inactive

{"compound_smiles": "COCC#Cc1ccc2c(c1)O[C@H](CN(C)S(=O)(=O)c1cccc(OC)c1)[C@H](C)CN([C@H](C)CO)S2(=O)=O", "assigned_label": "0 (no)"}
{"compound_smiles": "CN1C(=O)c2cc(NC(=O)c3cscn3)ccc2OC[C@H]2O[C@H](CC(=O)N3CCOCC3)CC[C@@H]21", "assigned_label": "0 (no)"}
{"compound_smiles": "C[C@@H]1CN([C@@H](C)CO)C(=O)c2cc(NC(=O)Nc3ccc(C(F)(F)F)cc3)ccc2O[C@@H]1CN(C)Cc1ccc(Oc2ccccc2)cc1", "assigned_label": "1 (yes)"}
{"compound_smiles": "C[C@@H]1CN([C@H](C)CO)C(=O)c2cc(NC(=O)C3CC3)ccc2O[C@@H]1CN(C)Cc1ccc2c(c1)OCO2", "assigned_label": "0 (no)"}
{"compound_smiles": "C[C@H]1CN([C@@H](C)CO)C(=O)c2cccc(NC(=O)Nc3cccc4ccccc34)c2O[C@H]1CN(C)CC1CCCCC1", "assigned_label": "0 (no)"}
{"compound_smiles": "COc1cccc(S(=O)(=O)N(C)C[C@H]2Oc3cc(C4=CCCC4)ccc3S(=O)(=O)N([C@@H](C)CO)C[C@@H]2C)c1", "assigned_label": "0 (no)"}
{"compound_smiles": "COc1ccc(CN(C)C[C@H]2OCCCC[C@@H](C)Oc3ccc(NC(=O)Nc4ccc5c(c4)OCO5)cc3C(=O)N([C@@H](C)CO)C[C@@H]2C)cc1", "assigned_label": "0 (no)"}
{"compound_smiles": "Cc1noc(C)c1NC(=O)Nc1ccc2c(c1)C(=O)N([C@H](C)CO)C[C@@H](C)[C@H](CN(C)S(=O)(=O)c1ccc(F)cc1)OCCCC[C@@H](C)O2", "assigned_label": "0 (no)"}
{"compound_smiles": "CC(C)N1C[C@H](C)[C@@H](CN(C)Cc2ccc(Oc3ccccc3)cc2)Oc2c(cccc2-c2nn[nH]n2)C1=O", "assigned_label": "0 (no)"}

* * *

- System: HepG2
- protocol_details: cytotoxicity call (relative viability < 0.9)
- condition_context: 10 µM
Hit rate of the full screen: of about 39,000 compounds, about 3,300 (8.5%) were called active. Shown is part of a subset that was picked to be rich in actives.

{"compound_smiles": "COc1ccc(NC(=O)Nc2cccc3c2O[C@@H](CN(C)Cc2ccc(-c4ccccc4)cc2)[C@@H](C)CN([C@H](C)CO)C3=O)cc1", "cytotoxicity call": "inactive"}
{"compound_smiles": "COc1ccc(NC(=O)Nc2cccc3c2O[C@H](CN(C)Cc2ccc(-c4ccccc4)cc2)[C@@H](C)CN([C@@H](C)CO)C3=O)cc1", "cytotoxicity call": "active"}
{"compound_smiles": "C[C@@H]1CN([C@H](C)CO)C(=O)c2cc(NC(=O)Nc3ccc(C(F)(F)F)cc3)ccc2O[C@@H]1CN(C)Cc1ccc(Oc2ccccc2)cc1", "cytotoxicity call": "active"}
{"compound_smiles": "C[C@H]1CCCCO[C@H](CN(C)C(=O)NC2CCCCC2)[C@@H](C)CN([C@@H](C)CO)C(=O)c2cc(NC(=O)Nc3ccc(F)cc3)ccc2O1", "cytotoxicity call": "inactive"}
{"compound_smiles": "C[C@@H]1CN([C@H](C)CO)C(=O)c2cccc(NC(=O)C3CCOCC3)c2O[C@@H]1CN(C)S(=O)(=O)c1ccccc1", "cytotoxicity call": "inactive"}
{"compound_smiles": "COc1ccc(NC(=O)Nc2cccc3c2O[C@H](CN(C)Cc2ccc(-c4ccccc4)cc2)[C@@H](C)CN([C@H](C)CO)C3=O)cc1", "cytotoxicity call": "inactive"}
{"compound_smiles": "C[C@@H]1CCCCO[C@@H](CN(C)CC2CCCCC2)[C@@H](C)CN([C@@H](C)CO)C(=O)c2cc(NS(=O)(=O)c3ccccc3)ccc2O1", "cytotoxicity call": "inactive"}
{"compound_smiles": "Cc1noc(C)c1NC(=O)Nc1ccc2c(c1)C(=O)N([C@H](C)CO)C[C@H](C)[C@H](CN(C)CC1CCCCC1)OCCCC[C@@H](C)O2", "cytotoxicity call": "inactive"}
{"compound_smiles": "C[C@@H]1CCCCO[C@@H](CN(C)CC2CC2)[C@H](C)CN([C@H](C)CO)C(=O)c2cc(NS(C)(=O)=O)ccc2O1", "cytotoxicity call": "inactive"}
{"compound_smiles": "C[C@H]1CN([C@@H](C)CO)C(=O)c2cc(NC(=O)Nc3ccc(C(F)(F)F)cc3)ccc2O[C@H]1CN(C)Cc1ccc(Oc2ccccc2)cc1", "cytotoxicity call": "active"}
{"compound_smiles": "C[C@H](CO)N1C[C@H](C)[C@H](CN(C)Cc2ccc(Oc3ccccc3)cc2)Oc2ccc(NC(=O)Nc3ccc(C(F)(F)F)cc3)cc2C1=O", "cytotoxicity call": "active"}
{"compound_smiles": "Cc1cc(-c2ccc3ccccc3n2)nc2ccc3ccccc3c12", "cytotoxicity call": "inactive"}
{"compound_smiles": "NCCc1nc(-c2ccccc2)cs1", "cytotoxicity call": "inactive"}
{"compound_smiles": "O=C(O)c1ccc2[nH]cnc2n1", "cytotoxicity call": "inactive"}

* * *

- System: HepG2
- protocol_details: cytotoxicity call (relative viability < 0.9)
- condition_context: 10 µM
Among all 39,000 compounds or so, about 3,300 (8.5%) were called active. For the sample, actives were picked, then their nearest neighbours and some compounds at random.
Labels: active, inactive

{"compound_smiles": "COc1cccc(CN(C)C[C@@H]2OCc3ccccc3-c3c(n(C)c4ccccc34)C(=O)N([C@@H](C)CO)C[C@H]2C)c1", "target": "HepG2", "assigned_label": "inactive"}
{"compound_smiles": "O=C(Nc1ccccc1)c1ccccc1O", "target": "HepG2", "assigned_label": "active"}
{"compound_smiles": "COc1ccc(S(=O)(=O)Nc2ccc3c(c2)C(=O)N([C@H](C)CO)C[C@H](C)[C@@H](CN(C)Cc2ccc(C(F)(F)F)cc2)OCCCC[C@H](C)O3)cc1", "target": "HepG2", "assigned_label": "inactive"}
{"compound_smiles": "O=C(Nc1ccccc1)c1ccccc1", "target": "HepG2", "assigned_label": "inactive"}
{"compound_smiles": "COC(=O)c1c2oc(c1C(=O)OC)C(=O)N[C@H](Cc1ccccc1)Cn1cc(nn1)CNC(=O)[C@@H](Cc1ccccc1)NC(=O)N[C@@H](CO)CC2", "target": "HepG2", "assigned_label": "inactive"}
{"compound_smiles": "C[C@H](CO)N1C[C@H](C)[C@@H](CN(C)Cc2ccc(Oc3ccccc3)cc2)Oc2c(NC(=O)CCCCCC(=O)Nc3ccccc3N)cccc2C1=O", "target": "HepG2", "assigned_label": "inactive"}
{"compound_smiles": "COc1ccc(S(=O)(=O)Nc2ccc3c(c2)C(=O)N([C@H](C)CO)C[C@H](C)[C@H](CN(C)Cc2ccc(C(F)(F)F)cc2)OCCCC[C@@H](C)O3)cc1", "target": "HepG2", "assigned_label": "active"}
{"compound_smiles": "O=C(O)c1csc2ccccc12", "target": "HepG2", "assigned_label": "inactive"}
{"compound_smiles": "C[C@@H]1CN([C@@H](C)CO)C(=O)c2cccc(NC(=O)NC3CCCCC3)c2O[C@@H]1CN(C)Cc1ccc(Cl)c(Cl)c1", "target": "HepG2", "assigned_label": "inactive"}
{"compound_smiles": "COc1ccc(S(=O)(=O)Nc2ccc3c(c2)C(=O)N([C@H](C)CO)C[C@@H](C)[C@H](CN(C)Cc2ccc(C(F)(F)F)cc2)OCCCC[C@@H](C)O3)cc1", "target": "HepG2", "assigned_label": "active"}
{"compound_smiles": "CCNC(=S)NCC1CC1", "target": "HepG2", "assigned_label": "inactive"}
{"compound_smiles": "COc1ccc(S(=O)(=O)Nc2ccc3c(c2)C(=O)N([C@H](C)CO)C[C@@H](C)[C@@H](CN(C)Cc2ccc(C(F)(F)F)cc2)OCCCC[C@@H](C)O3)cc1", "target": "HepG2", "assigned_label": "active"}
